Provenance of the data: the supplement of paper PMC11150407

# Tested on: MOLM1 and UCSD/AML1 (averaged)
# experiment_description: cell viability relative to DMSO control (POC); higher = less growth inhibition
# condition: 1 µM; 72 h
Out of some 2,100 compounds screened, about 180 (8.6%) showed an effect of 50% or more. The list comes from a sample in which strong results are over-represented; it also holds close analogues and randomly drawn compounds.
# yes (1) = cell viability below 90% (exclusive); no (0) = cell viability at/above 90%

Decide: cell viability of `COC(=O)NC(=S)Nc1ccccc1NC(=S)NC(=O)OC` strictly below 90%? no (0)

Is cell viability of `Cc1ncc(CNC(=O)N(CCCl)N=O)c(N)n1` strictly below 90%? no (0)

Dear colleague, could you confirm whether cell viability of `Nc1ncn[nH]1` falls below 90%? Thanks. no (0)

Given the entry `O=C([O-])c1ccccc1-c1c2cc(Br)c(=O)cc-2oc2[c]([Hg+])c([O-])c(Br)cc12.[Na+].[Na+].[OH-]` , would its reported cell viability be below 90%? yes (1)

Is cell viability strictly under 90% for the entry `O=C1CCC[C@@H]2[C@H]3C[C@@H](CN12)[C@@H]1CCCCN1C3.[O-][Cl+3]([O-])([O-])O` ? no (0)

Lab note: confirm whether the reported cell viability for this compound is below 90%, equality not counting. compound: `CC(=O)O[C@@H]1C[C@H]2C(C)(C)C(=O)C=C[C@]2(C)[C@H]2CC[C@]3(C)C(=CC(=O)O[C@H]3c3ccoc3)[C@@]21C` yes (1)

Dear colleague, could you confirm whether cell viability of `Cc1nccc2c1[nH]c1cc(O)ccc12` falls below 90%? Thanks. yes (1)

Quick check: cell viability of `CC[C@@]1(O)C[C@H](O[C@H]2C[C@H](N(C)C)[C@H](O)[C@H](C)O2)c2c(cc3c(c2O)C(=O)c2c(O)cccc2C3=O)[C@H]1C(=O)OC` under 90%? yes (1)

Dear colleague, could you confirm whether cell viability of `COc1cc([C@@H]2c3cc4c(cc3[C@H](OC(C)=O)[C@H]3COC(=O)[C@@H]23)OCO4)cc(OC)c1OC` falls below 90%? Thanks. yes (1)

Is cell viability of CC(C)N(CCC(C(N)=O)(c1ccccc1)c1ccccn1)C(C)C (stereo not drawn) strictly below 90%? no (0)

API: query returns whether the compound falls strictly under 90% in cell viability. Query: COc1cc2c(cc1OC)[C@@H]1C(=O)c3ccc4c(c3O[C@@H]1CO2)CC(C(C)C)O4 (stereo partly drawn) yes (1)

Criterion: cell viability strictly below 90%. Is it met by `c1ccc(/N=N/c2ccccc2)cc1` ? no (0)

Hello, I'm reviewing records and need to know if cell viability of `COc1c2c(cc3c1OCO3)CCN(C)C2` is below 90%. Could you check? no (0)

Is cell viability of `CSc1nc(NC(C)C)nc(NC(C)C)n1` strictly below 90%? no (0)

I'd appreciate it if you could check whether `C[C@H](N)[C@H](O)c1ccc(O)c(O)c1` has cell viability smaller than 90%. no (0)

Problem: For the compound CNC(C)[C@H](O)c1ccccc1 (stereo partly drawn) , is cell viability under 90%? no (0)

Threshold test, cell viability < 90%: `CCCCCCCCCc1ccc(O)cc1` no (0)

I wonder whether `CN(C)C(=S)SSC(=S)N(C)C` has cell viability below 90%. Can you tell? yes (1)

cell viability strictly < 90% for this compound? CN1C2CCC1CC(O)C2 (stereo not drawn) no (0)

Answer whether the compound `CC(=O)O[C@H]1CC[C@@]2(C)[C@H](CC[C@@H]3[C@@H]2CC[C@]2(C)[C@@H](C4=CC(=O)OC4)[C@@H](OC(C)=O)C[C@]32O)C1` has cell viability strictly less than 90% yes (1)

# check: cell viability < 90% for `Cc1ccc(O)cc1.Cc1cccc(O)c1.Cc1ccccc1O` no (0)

Input `COc1ccc(CCN2CCC(Nc3nc4ccccc4n3Cc3ccc(F)cc3)CC2)cc1` ; condition: cell viability strictly below 90%. Does it hold? no (0)

I'd appreciate it if you could check whether `CN(CC[C@H](N)CC(=O)N[C@H]1C=C[C@H](n2ccc(N)nc2=O)O[C@@H]1C(=O)O)C(=N)N` has cell viability smaller than 90%. no (0)

Here's an entry: `Oc1cc(Cl)ccc1Oc1ccc(Cl)cc1Cl` . Is its cell viability below 90%? no (0)

Does this compound meet the criterion cell viability < 90%? `CC[C@@]1(O)C[C@H](O)c2c(cc3c(c2O)C(=O)c2c(O)ccc(O)c2C3=O)[C@H]1C(=O)OC` no (0)

Lab log: compare recorded cell viability with 90%; is it strictly lower for `CNC(=O)Oc1cccc2c1OC(C)(C)C2` ? yes (1)

Strictly below 90% in cell viability? `N[C@@H]1C[C@H]1c1ccccc1.N[C@H]1C[C@@H]1c1ccccc1` no (0)

Hi there! Is cell viability for C/C(=C\c1csc(C)n1)[C@@H]1C[C@@H]2O[C@]2(C)CCC[C@H](C)[C@H](O)[C@@H](C)C(=O)C(C)(C)[C@@H](O)CC(=O)O1 [Epothilone B (EPO906)] below 90%, do you know? yes (1)

Consider the compound CC(C)(C)C(=O)C(Oc1ccc(Cl)cc1)n1cncn1 (stereo not drawn) . Is its cell viability strictly less than 90%? no (0)

Does the reported cell viability of CC(=O)O[C@H]1C[C@@H](OC(C)=O)C(C)(C)C2C[C@@H](OC(C)=O)[C@]3(C)C(CC[C@@]4(C)[C@H](c5ccoc5)C(=O)[C@H]5O[C@]543)[C@]21C (stereo partly drawn) stay below 90%? yes (1)

Here's an entry: O=P1(NCCCl)OCCCN1CCCl (stereo not drawn) . Is its cell viability below 90%? no (0)

Field: below-cutoff. Rule: recorded cell viability strictly less than 90%. Subject: `C=C(C)[C@H]1Cc2c(ccc3c2O[C@@H]2COc4cc(OC)c(OC)cc4[C@@H]2C3=O)O1` yes (1)

Would you kindly verify if cell viability of `CC1(C)C(=O)C=C[C@@]2(C)C1=C(O)C(=O)[C@]1(C)[C@@H]2CC[C@@]2(C)[C@H](c3ccoc3)C[C@H]3O[C@]321` is strictly less than 90%? yes (1)

Hello, is cell viability of the following compound strictly smaller than 90%? `CC(C)C[C@H](CN)CC(=O)O` yes (1)
